# protocol-notes: Cynomolgus monkey absorption test (pharmacokinetics)
# Assay type: in vivo, cynomolgus monkeys
# measurement-conditions: both sexes, cynomolgus monkey, plasma, po, 3 mg/kg, cynomolgus monkeys, single oral 3 mg/kg
experimental-endpoint: AUC(0-t) (µM·h)

# compound, result-unit, recorded-value
rows = [
    ("Cc1cc(-c2c(-c3ccccc3)nc(N)n3nc(CO)nc23)cc(C(F)(F)F)n1 [ILB-2109]", "µM·h", 35.2),
]

====

# target-of-assay: A2aR (Homo sapiens, UniProt P29274)
# Sequence (P29274 whole entry): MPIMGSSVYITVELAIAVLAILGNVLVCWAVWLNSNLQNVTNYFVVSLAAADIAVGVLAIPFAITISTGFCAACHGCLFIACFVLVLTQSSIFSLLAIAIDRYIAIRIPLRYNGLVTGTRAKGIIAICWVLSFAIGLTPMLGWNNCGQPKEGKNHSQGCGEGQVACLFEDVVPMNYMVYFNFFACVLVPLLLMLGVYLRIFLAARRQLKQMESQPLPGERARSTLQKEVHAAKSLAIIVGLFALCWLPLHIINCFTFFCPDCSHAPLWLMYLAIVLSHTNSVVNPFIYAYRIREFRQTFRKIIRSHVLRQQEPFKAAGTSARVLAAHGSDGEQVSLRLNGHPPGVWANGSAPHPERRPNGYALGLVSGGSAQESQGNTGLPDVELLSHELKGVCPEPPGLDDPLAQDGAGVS
# protocol-notes: Inhibition of binding of A2aR to its isotopically labeled ligand

# compound, result-unit, IC50
records = [
    ("Cc1cc(-c2c(-c3ccccc3)nc(N)n3nc(CO)nc23)cc(C(F)(F)F)n1 [ILB-2109]", "nM", 2.92),
]

====

# protocol-notes: SD rat absorption test (pharmacokinetics)
# Type: in vivo, SD rats
# measurement-conditions: Sprague-Dawley, rat, plasma; male SD rats, single oral 40 mg/kg; read-out: peak concentrations (Cmax)
# Method: According to the Technical Guidelines for Non-clinical Pharmacokinetic Studies of Drugs and the results of in vitro metabolic species difference studies, liquid chromatography-tandem mass spectrometry (LC-MS/MS) was used in this pharmacokinetic study to fully verify the analytical method for the determination of ILB-2109 content in plasma (EDTA-K2 anticoagulation) of Sprague-Dawley rats and cynomolgus monkeys. The linear range of the method was 20.0~20000 nM. […]

# compound, result-unit, Cmax
rows = [
    ("Cc1cc(-c2c(-c3ccccc3)nc(N)n3nc(CO)nc23)cc(C(F)(F)F)n1 [ILB-2109]", "µM", 63.3),
]

====

# protocol-notes: SD rat absorption test (pharmacokinetics)
# Format: in vivo, SD rats
# measurement-conditions: Sprague-Dawley, rat, plasma; male SD rats, single oral 40 mg/kg
# Protocol: According to the Technical Guidelines for Non-clinical Pharmacokinetic Studies of Drugs and the results of in vitro metabolic species difference studies, liquid chromatography-tandem mass spectrometry (LC-MS/MS) was used in this pharmacokinetic study to fully verify the analytical method for the determination of ILB-2109 content in plasma (EDTA-K2 anticoagulation) of Sprague-Dawley rats and cynomolgus monkeys. The linear range of the method was 20.0~20000 nM. […]
experimental-endpoint: AUC(0-t) (µM·h)

# test-smiles, recorded-value
data = [
    ("Cc1cc(-c2c(-c3ccccc3)nc(N)n3nc(CO)nc23)cc(C(F)(F)F)n1", 296),
]

====

# protocol-notes: SD rat absorption test (pharmacokinetics)
# Type: in vivo, SD rats
# measurement-conditions: Sprague-Dawley, rat, plasma; female SD rats, single intravenous injection 2 mg/kg
experimental-endpoint: AUC(0-t) (µM·h)

# molecule, recorded-value
records = [
    ("Cc1cc(-c2c(-c3ccccc3)nc(N)n3nc(CO)nc23)cc(C(F)(F)F)n1 [ILB-2109]", 60.3),
]

====

# target-of-assay: CYP2D6 (Homo sapiens, UniProt P10635)
# Construct: In vitro human liver microsome tests
# Sequence (P10635 whole entry): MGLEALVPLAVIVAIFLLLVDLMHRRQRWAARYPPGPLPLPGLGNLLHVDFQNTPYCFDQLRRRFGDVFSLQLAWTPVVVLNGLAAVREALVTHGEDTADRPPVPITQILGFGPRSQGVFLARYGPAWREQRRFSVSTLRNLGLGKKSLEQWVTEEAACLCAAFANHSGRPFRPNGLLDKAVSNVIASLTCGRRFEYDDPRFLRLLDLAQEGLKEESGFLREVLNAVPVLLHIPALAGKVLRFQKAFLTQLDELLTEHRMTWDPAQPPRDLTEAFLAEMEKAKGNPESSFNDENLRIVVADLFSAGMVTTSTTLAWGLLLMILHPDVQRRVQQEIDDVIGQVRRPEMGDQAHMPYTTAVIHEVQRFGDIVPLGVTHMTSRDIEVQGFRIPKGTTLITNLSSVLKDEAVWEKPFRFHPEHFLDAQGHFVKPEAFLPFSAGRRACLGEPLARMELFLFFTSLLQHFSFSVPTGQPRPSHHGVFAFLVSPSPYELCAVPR
# protocol-notes: Human liver microsome CYP inhibition (direct and time-dependent)
# measurement-conditions: human liver microsomes

# compound, target-of-assay, IC50
data = [
    ("Cc1cc(-c2c(-c3ccccc3)nc(N)n3nc(CO)nc23)cc(C(F)(F)F)n1 [ILB-2109]", "CYP2D6 (Homo sapiens, UniProt P10635)", "> 100 µM"),
]

====

# target-of-assay: A2aR (Homo sapiens, UniProt P29274)
# protocol-notes: Antagonism of A2aR activity at the cellular level
# Type: cell-based
# measurement-conditions: antagonism of A2aR activity
pIC50: −log10 of the molar value.

# molecule, pIC50
data = [
    ("Cc1cc(-c2c(-c3ccccc3)nc(N)n3nc(CO)nc23)cc(C(F)(F)F)n1 [ILB-2109]", 9.37),
]

====

# target-of-assay: CYP1A2 (Homo sapiens, UniProt P05177)
# Construct: In vitro human liver microsome tests
# Sequence (P05177 whole entry): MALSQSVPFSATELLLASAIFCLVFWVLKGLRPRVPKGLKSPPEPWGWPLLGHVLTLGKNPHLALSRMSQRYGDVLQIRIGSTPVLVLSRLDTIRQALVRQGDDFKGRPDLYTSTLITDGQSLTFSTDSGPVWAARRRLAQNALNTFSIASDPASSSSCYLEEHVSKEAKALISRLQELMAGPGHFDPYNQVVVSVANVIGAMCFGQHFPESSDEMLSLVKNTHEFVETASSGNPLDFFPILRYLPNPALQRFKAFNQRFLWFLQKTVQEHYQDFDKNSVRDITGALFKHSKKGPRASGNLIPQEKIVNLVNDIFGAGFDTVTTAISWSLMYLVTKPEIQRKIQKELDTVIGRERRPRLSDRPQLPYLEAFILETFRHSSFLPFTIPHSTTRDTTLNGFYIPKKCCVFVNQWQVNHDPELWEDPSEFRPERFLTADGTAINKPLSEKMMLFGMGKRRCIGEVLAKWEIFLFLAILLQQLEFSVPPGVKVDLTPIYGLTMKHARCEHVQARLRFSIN
# protocol-notes: Human liver microsome CYP inhibition (direct and time-dependent)
# measurement-conditions: human liver microsomes
pIC50: −log10 of the molar value.

# test-smiles, pIC50
measured = [
    ("Cc1cc(-c2c(-c3ccccc3)nc(N)n3nc(CO)nc23)cc(C(F)(F)F)n1", "< 4.00"),
]

====

# protocol-notes: 4-week repeated-dose toxicity test in cynomolgus monkeys
# Type: in vivo
# measurement-conditions: male, cynomolgus monkey, in vivo, 20 mg/kg

# test-smiles, Cmax / ng/mL
rows = [
    ("Cc1cc(-c2c(-c3ccccc3)nc(N)n3nc(CO)nc23)cc(C(F)(F)F)n1", 6580),
]

====

# protocol-notes: 4-week repeated-dose toxicity test in rats
# Design: species or system SD rats
# measurement-conditions: Sprague-Dawley, rat, in vivo, oral; male SD rats, 600 mg/kg (MTD), 4-week study; read-out: Cmax

# test-smiles, Cmax
rows = [
    ("Cc1cc(-c2c(-c3ccccc3)nc(N)n3nc(CO)nc23)cc(C(F)(F)F)n1", "36300 ng/mL"),
]

====

# protocol-notes: 4-week repeated-dose toxicity test in rats
# Design: species or system SD rats
# measurement-conditions: Sprague-Dawley, rat, in vivo, oral; female SD rats, 600 mg/kg (MTD), 4-week study; read-out: AUC0-24h
experimental-endpoint: AUC(0-t)

# test-smiles, recorded-value
records = [
    ("Cc1cc(-c2c(-c3ccccc3)nc(N)n3nc(CO)nc23)cc(C(F)(F)F)n1", "725 µg·h/mL"),
]

====

# protocol-notes: SD rat absorption test (pharmacokinetics)
# Type: in vivo, SD rats
# measurement-conditions: Sprague-Dawley, rat, plasma; female SD rats, oral 12 mg/kg

# compound, result-unit, bioavailability
measured = [
    ("Cc1cc(-c2c(-c3ccccc3)nc(N)n3nc(CO)nc23)cc(C(F)(F)F)n1 [ILB-2109]", "%", 67.8),
]

====

# protocol-notes: SD rat absorption test (pharmacokinetics)
# Assay type: in vivo, SD rats
# measurement-conditions: Sprague-Dawley, rat, plasma; male SD rats, single intravenous injection 2 mg/kg; read-out: plasma clearance rate (CL)

# molecule, clearance, mL/min/kg
measured = [
    ("Cc1cc(-c2c(-c3ccccc3)nc(N)n3nc(CO)nc23)cc(C(F)(F)F)n1 [ILB-2109]", 6.3),
]

====

# protocol-notes: 4-week repeated-dose toxicity test in cynomolgus monkeys
# Assay type: in vivo
# measurement-conditions: male, cynomolgus monkey, in vivo, 60 mg/kg
experimental-endpoint: AUC(0-t) (µg·h/mL)

# test-smiles, experimental-endpoint, result-unit, recorded-value
data = [
    ("Cc1cc(-c2c(-c3ccccc3)nc(N)n3nc(CO)nc23)cc(C(F)(F)F)n1", "AUC(0-t)", "µg·h/mL", 206),
]

====

# protocol-notes: SD rat absorption test (pharmacokinetics)
# Assay type: in vivo, SD rats
# measurement-conditions: Sprague-Dawley, rat, plasma; male SD rats, single oral 120 mg/kg; read-out: peak concentrations (Cmax)
experimental-endpoint: Cmax (µM)

# compound, result-unit, recorded-value
data = [
    ("Cc1cc(-c2c(-c3ccccc3)nc(N)n3nc(CO)nc23)cc(C(F)(F)F)n1 [ILB-2109]", "µM", 118),
]

====

# protocol-notes: 4-week repeated-dose toxicity test in cynomolgus monkeys
# Type: in vivo
# measurement-conditions: female, cynomolgus monkey, in vivo, 60 mg/kg

# compound, Cmax / ng/mL
records = [
    ("Cc1cc(-c2c(-c3ccccc3)nc(N)n3nc(CO)nc23)cc(C(F)(F)F)n1 [ILB-2109]", 11900),
]

====

# protocol-notes: SD rat absorption test (pharmacokinetics)
# Format: in vivo, SD rats
# measurement-conditions: Sprague-Dawley, rat, plasma; female SD rats, single intravenous injection 2 mg/kg; read-out: elimination half-life (T1/2) (converted)
# Protocol: According to the Technical Guidelines for Non-clinical Pharmacokinetic Studies of Drugs and the results of in vitro metabolic species difference studies, liquid chromatography-tandem mass spectrometry (LC-MS/MS) was used in this pharmacokinetic study to fully verify the analytical method for the determination of ILB-2109 content in plasma (EDTA-K2 anticoagulation) of Sprague-Dawley rats and cynomolgus monkeys. The linear range of the method was 20.0~20000 nM. […]

# compound, half-life [min]
records = [
    ("Cc1cc(-c2c(-c3ccccc3)nc(N)n3nc(CO)nc23)cc(C(F)(F)F)n1 [ILB-2109]", 343),
]

====

# protocol-notes: 4-week repeated-dose toxicity test in rats
# Parameters: species or system SD rats
# measurement-conditions: Sprague-Dawley, rat, in vivo, oral; male SD rats, 600 mg/kg (MTD), 4-week study; read-out: AUC0-24h

# test-smiles, result-unit, AUC(0-t)
data = [
    ("Cc1cc(-c2c(-c3ccccc3)nc(N)n3nc(CO)nc23)cc(C(F)(F)F)n1", "µg·h/mL", 481),
]

====

# target-of-assay: A2aR (Homo sapiens)
# protocol-notes: Antagonism of A2aR activity at the cellular level
# Assay type: cell-based
# measurement-conditions: tumor physiological equivalent conditions (NECA 5 µM)
pIC50: −log10 of the molar value.
experimental-endpoint: pIC50

# test-smiles, experimental-endpoint, recorded-value
rows = [
    ("Cc1cc(-c2c(-c3ccccc3)nc(N)n3nc(CO)nc23)cc(C(F)(F)F)n1", "pIC50", 8.97),
]
